- procedure_summary: Half life in CD1 mouse at 3 mg/kg, iv
- Type: ADME, organism-based
- Parameters: dose 3 mg/kg, route intravenous
- run_conditions: in vivo
measured_parameter: half-life (h)

(A) C(#Cc1cc(-c2n[nH]c3c2Cc2cc(Cn4cncn4)ccc2-3)cs1)COc1ccccc1
(B) COCCOCC#Cc1cc(-c2n[nH]c3c2Cc2cc(Cn4cncn4)ccc2-3)cs1
(C) CN1CCN(Cc2ccc3c(c2)Cc2c-3n[nH]c2-c2csc(C#CCOc3ccccc3)c2)CC1
Form: Sort by [half-life] Order [ ascending ] Provide the labels, sequenced as the question asks. B, A, C
(B: 0.3 h, A: 3 h, C: 5.5 h)

====

- procedure_summary: Clearance in CD1 mouse at 3 mg/kg, iv
- Format: ADME, organism-based
- Design: dose 3 mg/kg, route intravenous
- run_conditions: in vivo
measured_parameter: clearance (mL/min/kg)

item_smiles | clearance (mL/min/kg)
C(#Cc1cc(-c2n[nH]c3c2Cc2cc(Cn4cncn4)ccc2-3)cs1)COc1ccccc1 | 41.7
COCCOCC#Cc1cc(-c2n[nH]c3c2Cc2cc(Cn4cncn4)ccc2-3)cs1 | 56.7

====

- procedure_summary: AUC in CD1 mouse at 10 mg/kg, po
- Assay type: ADME, organism-based
- Parameters: dose 10 mg/kg, route oral
- run_conditions: plasma
measured_parameter: AUC (ng·h/mL)
Hi! Could you send only the number? It should be in ng·h/mL, unit omitted.

What value of AUC has been recorded for this entry: CN1CCN(Cc2ccc3c(c2)Cc2c(-c4csc(C#CCNC(=O)c5ccccc5)c4)n[nH]c2-3)CC1 3500
